Hello, the source for this data is patent US10168342B2, in case you need it.

# experimentalSystem: AEA-DA lipid probe targets in Neuro2a cells (Mus musculus)
# Sequence (Q7TMK9 whole entry): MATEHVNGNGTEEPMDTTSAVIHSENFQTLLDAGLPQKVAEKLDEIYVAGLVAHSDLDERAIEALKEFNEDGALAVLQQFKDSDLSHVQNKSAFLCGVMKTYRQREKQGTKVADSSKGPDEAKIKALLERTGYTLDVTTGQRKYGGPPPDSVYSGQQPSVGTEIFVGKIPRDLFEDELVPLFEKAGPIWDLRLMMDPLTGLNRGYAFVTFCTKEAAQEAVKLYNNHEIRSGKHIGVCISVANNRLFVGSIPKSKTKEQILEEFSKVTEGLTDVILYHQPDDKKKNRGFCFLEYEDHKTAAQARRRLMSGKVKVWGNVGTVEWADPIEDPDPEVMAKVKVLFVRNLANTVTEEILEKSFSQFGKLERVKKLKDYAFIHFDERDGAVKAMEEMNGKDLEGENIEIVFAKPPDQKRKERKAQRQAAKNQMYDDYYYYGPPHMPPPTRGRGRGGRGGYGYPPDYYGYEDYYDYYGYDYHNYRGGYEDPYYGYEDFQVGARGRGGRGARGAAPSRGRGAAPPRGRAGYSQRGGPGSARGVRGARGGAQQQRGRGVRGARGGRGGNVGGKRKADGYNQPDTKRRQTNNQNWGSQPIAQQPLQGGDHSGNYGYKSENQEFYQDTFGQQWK
# runConditions: competitor 25 μM
quantityMeasured: SILAC ratio Syncrip
Write no unit; give the number alone.

Would you please look over these solved cases?
> print(dat)
                                   compound  recordedmeasurement
1  CN1CCN(C(=O)c2c(-c3ccccc3)c3cc([N+](=O)[O-])ccc3n2C)CC1 [KML110]                  1.4
2  C=CCN(C)CCCCCCOc1ccc(C(=O)c2ccc(Br)cc2)c(F)c1 [Ro 48-8071, reference compound]                  0.8
3  CN1CCN(C(=O)c2[nH]c3ccc([N+](=O)[O-])cc3c2-c2ccccc2)CC1 [MJN228]                  1.2

Let us move to another entry and its SILAC ratio Syncrip.
*Q* # input compound: O=C(/C=C/c1cccnc1)NCCCCC1CCN(C(=O)c2ccccc2)CC1 [FK-866, reference compound] ; wanted: its SILAC ratio Syncrip
*A* 1.1
